This section presents variants with their documented enrichment ratio values.
B1: PhoQ; a variant is named by its letters at X, in order, P23837 (parent)
chain: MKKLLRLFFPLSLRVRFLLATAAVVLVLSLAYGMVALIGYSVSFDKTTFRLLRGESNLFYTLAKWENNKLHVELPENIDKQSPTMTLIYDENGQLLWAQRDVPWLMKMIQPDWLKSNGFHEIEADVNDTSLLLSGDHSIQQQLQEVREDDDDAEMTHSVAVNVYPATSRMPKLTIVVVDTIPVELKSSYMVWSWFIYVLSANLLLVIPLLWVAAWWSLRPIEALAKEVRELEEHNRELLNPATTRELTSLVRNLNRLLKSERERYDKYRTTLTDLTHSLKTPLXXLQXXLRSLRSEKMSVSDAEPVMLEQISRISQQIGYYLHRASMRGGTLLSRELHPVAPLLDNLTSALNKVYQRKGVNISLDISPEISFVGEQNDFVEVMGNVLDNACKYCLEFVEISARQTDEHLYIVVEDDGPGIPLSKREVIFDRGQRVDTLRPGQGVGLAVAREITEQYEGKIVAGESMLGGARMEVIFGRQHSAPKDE

variants of: B1; test: enrichment ratio after two sorts for PhoP signalling (ratio (wild type AVST 3.29)); higher = more functional; details: with PhoP (E. coli)
Over roughly 140,000 sequences, “enrichment ratio after two sorts for PhoP signalling” has its median near 0; the highest 2% begin near 11. The sample holds the highest values, similar sequences and a random draw of the others, so the mix is not that of the screen.

Examples with their reported enrichment ratio follow.
>  <CHANGES>
SKPL

>  <READOUT NAME>
enrichment ratio

>  <RECORDED RESULT>
≤ 0.25

$$$$
>  <CHANGES>
SKKL

>  <READOUT NAME>
enrichment ratio

>  <RECORDED RESULT>
≤ 0.25

$$$$

Field: next variant
Lab note: KYGK gave enrichment ratio of ≤ 0.25
